- Target system: T1, human latent myostatin (human, UniProt O14793 25-266; O14793 267-375)
- T1 construct: non-covalent complex of two propeptides and the mature homodimer; also called human myostatin latent form
- T1 sequence 1: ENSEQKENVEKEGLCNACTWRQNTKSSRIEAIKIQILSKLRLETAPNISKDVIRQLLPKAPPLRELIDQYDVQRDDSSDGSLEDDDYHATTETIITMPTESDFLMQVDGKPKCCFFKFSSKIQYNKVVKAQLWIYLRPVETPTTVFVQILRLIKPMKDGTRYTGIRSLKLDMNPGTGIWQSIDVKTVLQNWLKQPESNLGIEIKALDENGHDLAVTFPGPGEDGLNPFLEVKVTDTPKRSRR
- T1 sequence 2: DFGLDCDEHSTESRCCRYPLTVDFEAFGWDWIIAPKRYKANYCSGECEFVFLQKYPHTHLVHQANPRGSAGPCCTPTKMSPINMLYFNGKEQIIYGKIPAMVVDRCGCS
- Protocol description: SPR avidity condition pH7.4 37C; pH 7.4
Reported property: Kd (nM)
Quick reminder: number only, in nM, skip the unit.

Reference set, count: 3
Binder	Kd / nM
MS_M103205H781-SG1/M103202L813-SK1 (antibody, human IgG1, kappa, V domains shown, also called MS1032LO03-SG1) VH: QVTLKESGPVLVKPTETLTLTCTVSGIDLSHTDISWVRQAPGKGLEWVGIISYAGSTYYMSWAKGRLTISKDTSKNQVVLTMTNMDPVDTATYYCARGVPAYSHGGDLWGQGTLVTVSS VL: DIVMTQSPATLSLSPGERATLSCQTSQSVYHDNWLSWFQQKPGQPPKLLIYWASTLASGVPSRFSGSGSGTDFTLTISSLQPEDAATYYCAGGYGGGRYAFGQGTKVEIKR	0.196
MS_M103205H000-SG1/M103202L000-SK1 (antibody, human IgG1, kappa, V domains shown, humanized; also called MS1032LO00-SG1; Ab001) VH: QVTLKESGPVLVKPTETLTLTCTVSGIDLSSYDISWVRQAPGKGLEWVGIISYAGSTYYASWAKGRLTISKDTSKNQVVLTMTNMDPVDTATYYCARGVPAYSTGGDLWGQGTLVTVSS VL: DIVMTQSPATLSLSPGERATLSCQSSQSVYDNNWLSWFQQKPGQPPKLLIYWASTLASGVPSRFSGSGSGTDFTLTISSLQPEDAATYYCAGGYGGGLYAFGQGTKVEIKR	0.075
MS_M103205H781-SG1/M103202L719-SK1 (antibody, human IgG1, kappa, V domains shown, also called MS1032LO02-SG1) VH: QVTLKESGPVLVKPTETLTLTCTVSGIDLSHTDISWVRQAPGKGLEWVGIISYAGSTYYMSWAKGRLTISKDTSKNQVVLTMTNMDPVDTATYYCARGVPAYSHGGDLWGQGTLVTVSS VL: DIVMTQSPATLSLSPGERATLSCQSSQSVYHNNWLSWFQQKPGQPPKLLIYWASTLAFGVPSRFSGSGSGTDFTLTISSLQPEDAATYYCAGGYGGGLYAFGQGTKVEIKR	0.298

Continue with the binder presented below.
Query string: Quick check: Kd of MS_M103205H707-SG1/M103202L802-SK1 (antibody, human IgG1, kappa, V domains shown, also called MS1032LO04-SG1) VH: QVTLKESGPVLVKPTETLTLTCTVSGIDLSHYDISWVRQAPGKGLEWVGIISYAGSTYYASWAKGRLTISKDTSKNQVVLTMTNMDPVDTATYYCARGVPAYSHGGDLWGQGTLVTVSS VL: DIVMTQSPATLSLSPGERATLSCTSSQSVYHDNWLSWFQQKPGQPPKLLIYWASTLAYGVPSRFSGSGSGTDFTLTISSLQPEDAATYYCAGGYGGGLYAFGQGTKVEIKR ?
Result string: 0.163
